Target: canine CD3 on canine T cells (canine PBMC) (canine, UniProt P27597 22-202)
Sequence (P27597 22-202 limits assumed, chain 1 of 3): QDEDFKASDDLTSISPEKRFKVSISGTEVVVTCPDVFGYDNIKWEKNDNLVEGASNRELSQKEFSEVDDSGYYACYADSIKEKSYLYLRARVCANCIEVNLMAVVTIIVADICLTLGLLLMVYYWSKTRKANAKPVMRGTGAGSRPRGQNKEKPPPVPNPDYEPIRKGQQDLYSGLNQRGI
Sequence (chain, as listed by the source limits assumed, chain 2 of 3): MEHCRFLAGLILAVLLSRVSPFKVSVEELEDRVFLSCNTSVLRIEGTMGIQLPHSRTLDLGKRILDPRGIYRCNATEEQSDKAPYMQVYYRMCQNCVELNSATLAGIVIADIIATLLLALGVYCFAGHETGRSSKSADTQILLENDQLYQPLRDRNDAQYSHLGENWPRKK
Sequence (chain, as listed by the source limits assumed, chain 3 of 3): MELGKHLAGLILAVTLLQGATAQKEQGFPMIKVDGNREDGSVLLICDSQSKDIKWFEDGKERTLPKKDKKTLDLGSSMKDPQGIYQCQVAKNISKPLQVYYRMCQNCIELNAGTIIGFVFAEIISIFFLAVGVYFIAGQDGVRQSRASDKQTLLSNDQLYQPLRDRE
Protocol Text: cell-based or functional assay
Examples of binders with documented Ki67 Proliferation, Day 9, PB follow.

1) PMX179 (monospecific anti-canine CD3, canine IgG-B effector function deficient Fc) (antibody, V domains shown) VH: ELALQESGPGLVRPSQTLSLTCVVSGGSVTRSYYWNWIRQRPGRGLEWMGYWTGTTIYNPAFQGRISITVDTAKNQFSLHLISMTTEDTAVYYCGREGGSSLGAIAYWGQGTRVTVSS VL: SYVLTQLPSKNVTLKQPAHITCGGDNIGSKSVHWYQQKLGQAPVLIIYYDSSRPTGIPERFSGANSGNTATLTISGALAEDEADYYCQVWDSSAKAAVFGGGTHLTVL
0.31

Prompt line: State its Ki67 Proliferation, Day 9, PB for this binder: PMX157 (monospecific anti-canine CD3, canine IgG-B effector function deficient Fc) (antibody, V domains shown) VH: ELTLQESGPGLVKPSQTLSLTCVVSGGSVTSSYFWNWIRQRPGRGLEWMGYWTGSTIYSPAFQGRISITPDTAKNQFSLQLSSMTTEDTAVYYCSREGGSTLGAFAYWGQGTLVTVSS VL: SYVLTQLPSKNVTLKQPAHITCGGDKIGSKSVHWYQQKLGQAPVLIIYYDSSRPTGIPERFSGANSGNTATLTISGALAEDEADYYCQVWDSSAKASVFGGGTHLTVL
Response line: 0.34
